Ref: the supplement of paper PMC11061612

tested on: FU-OV-1 (Ovarian Carcinoma); assay: combination Emax (second highest fraction inhibited in the dose matrix, 72 h); higher = more inhibition; extreme values may be limits of the assay
Field: combination Emax. Provide a value for each of the compounds that follow.

For this compound ( Cn1cnc2c(F)c(Nc3ccc(Br)cc3Cl)c(C(=O)NOCCO)cc21 [Selumetinib] + CCN(CCO)CCCOc1ccc2c(Nc3cc(CC(=O)Nc4cccc(F)c4)[nH]n3)ncnc2c1 [AZD2811] (first compound max 10 µM, 7x7, partner max 1 µM) ), measured combination Emax is 0.405

Looking up Cc1c2c(nn1C)CSCc1cc(n(C)n1)CSc1cc(c3ccccc3c1)OCCCc1c(C(=O)O)n(C)c3c-2c(Cl)ccc13 [AZD5991] + CC(=O)O[C@H]1C(=O)[C@@]2(C)[C@H]([C@H](OC(=O)c3ccccc3)[C@]3(O)C[C@H](OC(=O)[C@H](O)[C@@H](NC(=O)c4ccccc4)c4ccccc4)C(C)=C1C3(C)C)[C@]1(OC(C)=O)CO[C@@H]1C[C@@H]2O [Paclitaxel] (first compound max 1 µM, 7x7, partner max 3 µM) , I found its combination Emax recorded as 0.474

combination Emax recorded for this compound, Cc1nc(-c2cn3c(n2)-c2ccc(-c4cnn(C(C)(C)C(N)=O)c4)cc2OCC3)n(C(C)C)n1 [Taselisib] + O=C(Nc1ccc2[nH]nc(-c3ccncc3)c2c1)[C@@H]1CCN(CC(=O)N2CCN(c3ccc(-c4ncccn4)cc3)CC2)C1 [SCH772984] (first compound max 10 µM, 7x7, partner max 5 µM) , is 0.727

Query C=CCn1c(=O)c2cnc(Nc3ccc(N4CCN(C)CC4)cc3)nc2n1-c1cccc(C(C)(C)O)n1 [AZD1775] + Nc1ccn([C@@H]2O[C@H](CO)[C@@H](O)C2(F)F)c(=O)n1 [Gemcitabine] (first compound max 1 µM, partner max 0.3 µM) yields combination Emax of 0.633

Summary for this compound, N#Cc1cnc(Nc2cc(NC[C@H]3CNCCO3)c(C(F)(F)F)cn2)cn1 [SRA737] + CCc1c2c(nc3ccc(O)cc13)-c1cc3c(c(=O)n1C2)COC(=O)[C@]3(O)CC [SN-38] (first compound max 10 µM, 7x7, partner max 0.3 µM) : combination Emax is 0.495

CC1(C)CCC(CN2CCN(c3ccc(C(=O)NS(=O)(=O)c4ccc(NCC5CCOCC5)c([N+](=O)[O-])c4)c(Oc4cnc5[nH]ccc5c4)c3)CC2)=C(c2ccc(Cl)cc2)C1 [Venetoclax] + C[C@@H](Nc1cc(F)cc(F)c1)c1cc(C(=O)N(C)C)cc2c(=O)cc(N3CCOCC3)oc12 [AZD8186] (first compound max 1 µM, 7x7, partner max 3 µM) yielded combination Emax of 0.412

Documented combination Emax of CC(=O)c1c(C)c2cnc(Nc3ccc(N4CCNCC4)cn3)nc2n(C2CCCC2)c1=O [Palbociclib] + Cc1c2c(nn1C)CSCc1cc(n(C)n1)CSc1cc(c3ccccc3c1)OCCCc1c(C(=O)O)n(C)c3c-2c(Cl)ccc13 [AZD5991] (first compound max 10 µM, 7x7, partner max 1 µM) : 0.235

The measured combination Emax associated with C[C@@H](c1ccc2nccn2c1)n1nnc2ncc(-c3cnn(C)c3)nc21 [Savolitinib] + Cc1c2c(nn1C)CSCc1cc(n(C)n1)CSc1cc(c3ccccc3c1)OCCCc1c(C(=O)O)n(C)c3c-2c(Cl)ccc13 [AZD5991] (first compound max 1 µM, 7x7, partner max 1 µM) reads 0.204

In plain terms, O=C(c1cc(Cc2n[nH]c(=O)c3ccccc23)ccc1F)N1CCN(C(=O)C2CC2)CC1 [Olaparib] + CN(CC[C@H](CSC1=CC=CC=C1)NC2=C(C=C(C=C2)S(=O)(=O)NC(=O)C3=CC=C(C=C3)N4CCC(CC4)[C@H](C5=CC=CC=C5C6=CC=C(C=C6)Cl)O)S(=O)(=O)C(F)(F)F)CCO [AZD4320] (first compound max 10 µM, 7x7, partner max 1 µM) has a documented combination Emax of 0.226

Kindly note the recorded combination Emax for CC1(C)CCC(CN2CCN(c3ccc(C(=O)NS(=O)(=O)c4ccc(NCC5CCOCC5)c([N+](=O)[O-])c4)c(Oc4cnc5[nH]ccc5c4)c3)CC2)=C(c2ccc(Cl)cc2)C1 [Venetoclax] + CN(C)CCCOc1ccc(-c2ccc3ncc4c(c3c2)n(C2CCOCC2)c(=O)n4C)cn1 [AZD0156] (first compound max 1 µM, 7x7, partner max 1 µM) , which is 0.291

Consider COc1cccc(OCCCN)c1-c1cc(Nc2cnc(C#N)cn2)n[nH]1 [Prexasertib] + CCc1c2c(nc3ccc(O)cc13)-c1cc3c(c(=O)n1C2)COC(=O)[C@]3(O)CC [SN-38] (first compound max 1 µM, 7x7, partner max 0.3 µM) . Its measured combination Emax is 0.806

Notebook: COc1nnc2ccc(N3CCC(c4ccc(OCCN5CCN(C)C(=O)[C@H]5C)cc4)CC3)nn12 [AZD5153] + CC1(C)CCC(CN2CCN(c3ccc(C(=O)NS(=O)(=O)c4ccc(NCC5CCOCC5)c([N+](=O)[O-])c4)c(Oc4cnc5[nH]ccc5c4)c3)CC2)=C(c2ccc(Cl)cc2)C1 [Venetoclax] (first compound max 1 µM, 7x7, partner max 1 µM) , combination Emax read as 0.631

GET /value?item= CC1(C)CCC(CN2CCN(c3ccc(C(=O)NS(=O)(=O)c4ccc(NCC5CCOCC5)c([N+](=O)[O-])c4)c(Oc4cnc5[nH]ccc5c4)c3)CC2)=C(c2ccc(Cl)cc2)C1 [Venetoclax] + CCN(CCO)CCCOc1ccc2c(Nc3cc(CC(=O)Nc4cccc(F)c4)[nH]n3)ncnc2c1 [AZD2811] (first compound max 1 µM, 7x7, partner max 1 µM) &field=combination Emax returns 0.238

The recorded combination Emax for entry C=CCn1c(=O)c2cnc(Nc3ccc(N4CCN(C)CC4)cc3)nc2n1-c1cccc(C(C)(C)O)n1 [AZD1775] + CCc1c2c(nc3ccc(O)cc13)-c1cc3c(c(=O)n1C2)COC(=O)[C@]3(O)CC [SN-38] (first compound max 1 µM, partner max 0.3 µM) equals 0.711
